- Measurement protocol: folding stability dG unfold from trypsin proteolysis; higher = more stable
Observable: folding stability dG unfold (kcal/mol)
Only the number, expressed in kcal/mol, is required.

Past entries and their recorded results:
Sequence input: SASPALELAKEIAEKIEPLFPDISPVEVTVTPRGSTALGTIKFKRPDGKELVAKMIVSAGGDPVEIILLSAG [r14_719_JUSTAS]
Observable: folding stability dG unfold
Test value: 1.56

Sequence input: SAGGSAGGSAEPPEVRIRLEVRLLPDGTLEVTAEIEVDGKTYRITVTVDAKTNEIVSVSIEPSAGGSAGGSA [r18_459_TrROS_Hall]
Observable: folding stability dG unfold
Test value: 4.44

Sequence input: SAGGSAGGSPMKIEAVELEDGTVAYRLEDGTVLLVTKNEDGTYTVKVFKNGKLVEEKEIKLPPSAGGSAGGS [r12_451_TrROS_Hall]
Observable: folding stability dG unfold
Test value: 2.28

Sequence input: SAGGSATLPEKILEELAAAGYPLEYVTITEVKTEERPGSVVVTVKVEYKVPNSDRIETVNLTVPRPSAGGSA [r15_863_JUSTAS]
Observable: folding stability dG unfold
Test value: 1.71

Sequence input: SAGGSAGGSAAVILPEGTLYFTLPDGSRAAATVDPATGTVHIRLYSPDGVPLAEADIPIDPSAGGSAGGSAG [r3_447_TrMRF]
Observable: folding stability dG unfold
Test value: 0.947

Note folding stability dG unfold for the sequence shown: SAGGMKVTILEVKPDEVVVKTSDGKTYVFPEVIKELKEKGGGVLPTKEEIAEYLKKNNIPVDDVEFGLSAGG [r13_610_JUSTAS]
0.436

Hello, please tell me recorded folding stability dG unfold for this one: SAGGSDLKVQVNKDGNTIRIQLPDGKPIFEIPFYRYDPDDGKPLEPWTIRMRLDPDGNIKIEEITPSAGGSA [r2_362_TrROS]
1.77

These entries and their values trace back to the supplement of paper PMC12764529.
